Target: Prostaglandin G/H synthase 2 (Homo sapiens)
Sequence (P35354 whole entry): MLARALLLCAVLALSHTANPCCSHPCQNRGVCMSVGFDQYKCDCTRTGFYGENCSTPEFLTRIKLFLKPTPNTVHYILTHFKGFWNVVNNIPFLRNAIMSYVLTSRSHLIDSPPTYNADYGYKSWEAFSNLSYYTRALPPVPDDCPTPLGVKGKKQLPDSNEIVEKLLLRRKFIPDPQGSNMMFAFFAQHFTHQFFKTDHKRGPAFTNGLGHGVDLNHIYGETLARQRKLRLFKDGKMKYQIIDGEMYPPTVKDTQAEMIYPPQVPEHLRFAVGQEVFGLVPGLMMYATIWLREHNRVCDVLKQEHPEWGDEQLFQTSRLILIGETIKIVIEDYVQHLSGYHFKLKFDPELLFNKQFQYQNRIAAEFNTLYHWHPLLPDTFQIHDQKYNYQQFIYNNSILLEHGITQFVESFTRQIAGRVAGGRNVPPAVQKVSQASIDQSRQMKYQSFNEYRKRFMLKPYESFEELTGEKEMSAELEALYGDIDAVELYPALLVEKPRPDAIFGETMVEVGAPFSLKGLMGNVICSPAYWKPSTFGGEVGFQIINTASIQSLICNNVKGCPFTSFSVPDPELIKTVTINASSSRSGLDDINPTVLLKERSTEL
Assay: Inhibition of COX2 (unknown origin)
assayReadout: IC50 (µM)

>>> measuredvalue("COc1cc(C2Oc3cc(C=Cc4cc(O)cc(O)c4)ccc3OC2CO)cc(OC)c1O (stereo unspecified)")
9.9
